system: HL-60(TB) leukemia; experiment: NCI tumour cell line growth inhibition, 48 h; in the data active = GI50 below about 0.43 µM; inactive = the rest
Allowed answers: true for active, false for inactive

| compound | cat |
| --- | --- |
| O=C(Nc1ccc2[nH]nc(-c3ccncc3)c2c1)[C@@H]1CCN(CC(=O)N2CCN(c3ccc(-c4ncccn4)cc3)CC2)C1 | true |
| NS(=O)(=O)c1ccc(Nc2cc(-c3cccc(O)c3)[nH]n2)cc1 | false |
| CS(=O)(=O)Nc1cncc(-c2ccc3ncnc(Nc4ccc(F)c(Cl)c4)c3c2)c1 | false |
| CCN(CC)c1ccc(/C=N/NC(=O)CSc2nc3ccccc3c(=O)n2CCc2ccc(S(N)(=O)=O)cc2)c(O)c1 | false |

Task: Query: recorded result category for Cc1cc(S(=O)(=O)Nc2nc3ccccc3o2)c(SCc2ccccc2)cc1Cl in this test
Result: false

Provenance of the data: PubChem BioAssay (NCI)
